Tested on: 323965-272-R-J2-PDC complex spheroid viability
measurement.protocol: Anticancer human tumor 323965-272-R-J2-PDC patient-derived pancreatic carcinoma cell line growth inhibition [CLK]
experimental.context: second compound 3.16 µM; first compound 0.0316 µM; hits give low values
# Lookup of reported viability, T/C keyed by entry

Here is how some compounds turned out for viability, T/C.
CC(Nc1ccc2c(c1)OCCn1cc(N3C(=O)OCC3C(F)F)nc1-2)C(N)=O (stereo not given) + CN1CCN(c2cc(C(=O)Nc3cc4cc(-c5cnn(C)c5)ccc4cn3)ccn2)CC1	3.35%
COC1C=CCC(C)C(C)S(=O)(=O)NC(=O)c2ccc3c(c2)N(CC2CCC21)CC1(CCCc2cc(Cl)ccc21)CO3 (stereo not given) + CN1CCN(c2cc(C(=O)Nc3cc4cc(-c5cnn(C)c5)ccc4cn3)ccn2)CC1	3.51%
Nc1ccccc1NC(=O)c1ccc(CNC(=O)OCc2cccnc2)cc1 + CN1CCN(c2cc(C(=O)Nc3cc4cc(-c5cnn(C)c5)ccc4cn3)ccn2)CC1	3.66%

Task item: I'd like to know its viability, T/C. The compound in question is COc1cccc2c1C(=O)c1c(O)c3c(c(O)c1C2=O)CC(O)(C(=O)CO)CC3OC1CC(N)C(O)C(C)O1 (stereo not given) + CN1CCN(c2cc(C(=O)Nc3cc4cc(-c5cnn(C)c5)ccc4cn3)ccn2)CC1
Reply: 4.1%

Task item: Return reported viability, T/C; argument: COc1c(OCCCN2CCOCC2)ccc2c3n(c(=NC(=O)c4cnc(N)nc4)nc12)CCN3 + CN1CCN(c2cc(C(=O)Nc3cc4cc(-c5cnn(C)c5)ccc4cn3)ccn2)CC1
Reply: 3.03%

---

Measured viability, T/C values are reported for all entries that follow.
Test system: 323965-272-R-J2-PDC complex spheroid viability
measurement.protocol: Anticancer human tumor 323965-272-R-J2-PDC cell line growth inhibition [CLK];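 also: spheroids exposed to agents for seven days before readout; percent of DMSO vehicle control wells so 100% = untreated growth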
experimental.context: second compound 3.16 µM; first compound 0.03 µM; hits give low values
Quick note: give the figure in %, leave out the unit.

Previously resolved entries follow.
C=CC(=O)Nc1cc(Nc2nccc(-c3cn(C)c4ccccc34)n2)c(OC)cc1N(C)CCN(C)C + CNC(=O)c1ccc(Nc2nc(OC3CCCC3)c3c(-c4ccc5nc(C)oc5c4)c[nH]c3n2)c(OC)c1	34.6
NC(=O)C(=Cn1cnc(-c2cc(C(F)(F)F)cc(C(F)(F)F)c2)n1)c1cncnc1 + CN1CCN(c2cc(C(=O)Nc3cc4cc(-c5cnn(C)c5)ccc4cn3)ccn2)CC1	4.18

Let us move to another entry and its viability, T/C.
Task item: Reported viability, T/C for CC(C)CC(NC(=O)C(Cc1ccccc1)NC(=O)c1cnccn1)B(O)O (stereo not drawn) + CNC(=O)c1ccc(Nc2nc(OC3CCCC3)c3c(-c4ccc5nc(C)oc5c4)c[nH]c3n2)c(OC)c1 : what is it?
Reply: 0.28

---

Tested on: 323965-272-R-J2-PDC complex spheroid viability
measurement.protocol: Anticancer human tumor 323965-272-R-J2-PDC cell line growth inhibition [CLK];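 also: spheroids exposed to agents for seven days before readout; percent of DMSO vehicle control wells so 100% = untreated growth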
experimental.context: second compound 0.316 µM; first compound 0.1 µM; hits give low values
Text: A high-throughput screen of multi-cell type tumor spheroids was designed to identify active combinations of […] and targeted small molecules. Complex spheroids include a stromal component modeled by human endothelial cells (HUVEC) and fibroblasts modeled by human mesenchymal stem cells (MSCs). […] Compounds. […] If the clinical Cmax for an agent had not been determined, the highest concentration tested was 10 microM. […]
viability, T/C less than 60% is rule met; viability, T/C greater than or equal to 60% is rule not met.

Worked examples follow.
Nc1ccn(C2OC(CO)C(O)C2(F)F)c(=O)n1 (stereo not given) + CN1CCN(c2cc(C(=O)Nc3cc4cc(-c5cnn(C)c5)ccc4cn3)ccn2)CC1	rule met
C=C(F)C(=O)N1CCN(c2nc(OCC3CCCN3C)nc3c2CCN(c2cccc4cccc(Cl)c24)C3)CC1CC#N (stereo not given) + CN1CCN(c2cc(C(=O)Nc3cc4cc(-c5cnn(C)c5)ccc4cn3)ccn2)CC1	rule met
CC(CO)NC(=O)c1cc(-c2ccc(Cl)cc2)nn(-c2cnn(C)c2)c1=O (stereo not given) + CNC(=O)c1ccc(Nc2nc(OC3CCCC3)c3c(-c4ccc5nc(C)oc5c4)c[nH]c3n2)c(OC)c1	rule not met

Now look at this entry.
Task item: viability, T/C strictly < 60% for this compound? C=C(F)C(=O)N1CCN(c2nc(OCC3CCCN3C)nc3c2CCN(c2cccc4cccc(Cl)c24)C3)CC1CC#N (stereo not given) + CNC(=O)c1ccc(Nc2nc(OC3CCCC3)c3c(-c4ccc5nc(C)oc5c4)c[nH]c3n2)c(OC)c1
Reply: rule met
